experimentalSystem: GSK3β (Homo sapiens, UniProt P49841+Q96SW2)
Construct: genetically engineered using CRISPR/Cas9 technology to endogenously tag GSK3p protein with HiBiT tag at the C-terminus; host or cells: HEK293 cells, CRISPR/Cas9 knock-in of HiBiT at the endogenous GSK3B locus
Sequence (P49841 whole entry): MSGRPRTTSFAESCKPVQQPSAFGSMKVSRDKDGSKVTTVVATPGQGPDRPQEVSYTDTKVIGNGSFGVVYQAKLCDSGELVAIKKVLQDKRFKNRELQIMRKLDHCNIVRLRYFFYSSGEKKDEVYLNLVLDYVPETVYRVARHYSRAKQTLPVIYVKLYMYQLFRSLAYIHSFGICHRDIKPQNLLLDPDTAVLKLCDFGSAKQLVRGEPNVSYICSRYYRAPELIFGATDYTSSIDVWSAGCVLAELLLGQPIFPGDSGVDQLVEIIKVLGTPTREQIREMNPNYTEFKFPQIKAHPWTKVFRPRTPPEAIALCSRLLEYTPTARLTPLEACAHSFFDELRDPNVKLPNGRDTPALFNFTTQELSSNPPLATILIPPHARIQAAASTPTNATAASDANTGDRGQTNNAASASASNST
Sequence (Q96SW2 whole entry): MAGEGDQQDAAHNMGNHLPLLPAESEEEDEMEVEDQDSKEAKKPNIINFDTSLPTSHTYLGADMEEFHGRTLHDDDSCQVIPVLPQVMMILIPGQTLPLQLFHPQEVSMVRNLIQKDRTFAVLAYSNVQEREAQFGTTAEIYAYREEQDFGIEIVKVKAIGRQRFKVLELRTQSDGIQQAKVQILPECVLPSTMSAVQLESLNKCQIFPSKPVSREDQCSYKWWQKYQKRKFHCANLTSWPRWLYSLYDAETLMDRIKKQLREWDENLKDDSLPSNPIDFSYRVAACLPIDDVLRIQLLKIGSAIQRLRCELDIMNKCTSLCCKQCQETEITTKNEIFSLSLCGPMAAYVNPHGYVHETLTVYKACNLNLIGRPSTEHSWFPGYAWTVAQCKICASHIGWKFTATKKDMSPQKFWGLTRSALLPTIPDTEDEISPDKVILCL
Sequence (Q16531 whole entry partner): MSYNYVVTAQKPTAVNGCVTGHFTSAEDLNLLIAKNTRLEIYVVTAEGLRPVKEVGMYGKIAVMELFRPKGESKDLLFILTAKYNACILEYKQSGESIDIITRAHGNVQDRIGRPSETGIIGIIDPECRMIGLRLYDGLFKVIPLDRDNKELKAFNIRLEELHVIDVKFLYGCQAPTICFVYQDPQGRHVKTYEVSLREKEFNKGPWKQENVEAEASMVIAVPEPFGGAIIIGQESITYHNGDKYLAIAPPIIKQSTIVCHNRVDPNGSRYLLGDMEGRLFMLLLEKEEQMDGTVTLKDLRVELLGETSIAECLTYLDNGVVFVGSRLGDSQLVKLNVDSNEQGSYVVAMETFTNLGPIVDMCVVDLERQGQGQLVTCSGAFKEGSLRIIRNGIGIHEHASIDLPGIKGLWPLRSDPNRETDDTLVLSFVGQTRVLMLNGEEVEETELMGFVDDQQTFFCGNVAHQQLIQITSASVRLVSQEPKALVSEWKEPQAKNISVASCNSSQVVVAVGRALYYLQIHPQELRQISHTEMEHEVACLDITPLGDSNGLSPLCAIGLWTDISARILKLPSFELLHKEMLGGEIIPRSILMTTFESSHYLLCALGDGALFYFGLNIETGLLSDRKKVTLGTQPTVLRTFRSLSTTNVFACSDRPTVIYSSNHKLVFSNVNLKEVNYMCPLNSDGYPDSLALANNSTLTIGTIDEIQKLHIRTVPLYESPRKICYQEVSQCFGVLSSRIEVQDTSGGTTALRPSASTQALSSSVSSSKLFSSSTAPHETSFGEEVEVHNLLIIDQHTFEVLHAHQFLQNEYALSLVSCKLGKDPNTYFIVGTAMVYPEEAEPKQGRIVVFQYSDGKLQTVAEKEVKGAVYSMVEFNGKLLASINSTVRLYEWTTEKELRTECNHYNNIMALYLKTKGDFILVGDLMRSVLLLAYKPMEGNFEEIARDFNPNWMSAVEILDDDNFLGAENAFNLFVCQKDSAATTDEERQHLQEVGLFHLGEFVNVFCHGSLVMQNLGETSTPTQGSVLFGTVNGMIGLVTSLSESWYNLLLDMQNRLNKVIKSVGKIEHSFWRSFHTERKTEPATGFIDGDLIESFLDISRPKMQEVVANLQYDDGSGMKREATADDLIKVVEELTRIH
measurementDescription: High throughput screening for GSK3β-HiBiT targeted degradation (Nano-Glo HiBiT Lytic luminescence)
Format: cell-based
settings: HEK293 cells with endogenously HiBiT-tagged GSK3β, 24 h incubation, 0.01-30 μM; products of one-pot plate array (FIG. 1, Method A); read-out: DC50 (half-maximal degradation concentration)
valueType: DC50

Sample records with DC50:
[[record]]
molecule = "COc1ccc(-c2ocnc2C(=O)NCCCn2cc(CCCN3CCN(Cc4ccc(N5CCC(=O)NC5=O)cc4)CC3)nn2)cc1Cl"
valuetype = "DC50"
measuredresult = "> 10 µM"

[[record]]
molecule = "COc1ccc(-c2ocnc2C(=O)NCCCn2cc(COc3ccc(CN4CCC5(C4)CN(Cc4ccc(C(=O)NC6CCC(=O)NC6=O)c(F)c4)C5)cc3)nn2)cc1Cl (stereo not drawn)"
valuetype = "DC50"
measuredresult = "1.6 µM"


Please turn your attention to the following entry.
# input molecule: "COc1ccc(-c2ocnc2C(=O)NCCCn2cc(-c3cccc(CN4CCN(CC(=O)N[C@H](C(=O)N5C[C@H](O)C[C@H]5C(=O)NCc5ccc(-c6scnc6C)cc5)C(C)(C)C)CC4)n3)nn2)cc1Cl" ; wanted: its DC50
> 10 µM

---

Reported DC50 values follow for various molecules
experimentalSystem: GSK3β (Homo sapiens, UniProt P49841+Q96SW2)
Construct: genetically engineered using CRISPR/Cas9 technology to endogenously tag GSK3p protein with HiBiT tag at the C-terminus; host or cells: HEK293 cells, CRISPR/Cas9 knock-in of HiBiT at the endogenous GSK3B locus
measurementDescription: High throughput screening for GSK3β-HiBiT targeted degradation (Nano-Glo HiBiT Lytic luminescence)
Format: cell-based
settings: HEK293 cells with endogenously HiBiT-tagged GSK3β, 24 h incubation, 0.01-30 μM; products of one-pot plate array (FIG. 1, Method A); read-out: DC50 (half-maximal degradation concentration)
Experimental: High throughput Screening for GSK3 β-HiBiTL: Test compounds were transferred into Echo plate (Beckman, 001-12782, Echo LDV384) using BRAVO automated liquid handling platform which serves as source plate (10 mM stocks in DMSO). […] Luminescence signals were measured in an appropriate plate reader (PHERAstar FSX, BMG Labtech) (Dixon et al., 2016, NanoLuc complementation reporter optimized for accurate measurement of protein interactions in cells, ACS Chem. Biol., 11, 400-8). […]

[[record]]
molecule = "COc1ccc(-c2ocnc2C(=O)NCCCn2cc(-c3cccc(CN4CCN(Cc5ccc(C(=O)NC6CCC(=O)NC6=O)c(F)c5)CC4)n3)nn2)cc1Cl (stereo not drawn)"
measuredresult = "> 10 µM"

[[record]]
molecule = "COc1ccc(-c2ocnc2C(=O)NCCCn2cc(COCCOCCN3CCN(Cc4ccc(N5CCC(=O)NC5=O)cc4)CC3)nn2)cc1Cl"
measuredresult = "> 10 µM"

[[record]]
molecule = "COc1ccc(-c2ocnc2C(=O)NCCCn2cc(COc3ccc(CN4CCN(Cc5ccc(C(=O)NC6CCC(=O)NC6=O)nc5)CC4)cc3)nn2)cc1Cl (stereo not drawn)"
measuredresult = "> 10 µM"

[[record]]
molecule = "COc1ccc(-c2ocnc2C(=O)NCCCn2cc(COc3ccc(CN4CCC5(C4)CN(Cc4ccc(C(=O)NC6CCC(=O)NC6=O)nc4)C5)cc3)nn2)cc1Cl (stereo not drawn)"
measuredresult = "1.1 µM"

[[record]]
molecule = "COc1ccc(-c2ocnc2C(=O)NCCCn2cc(CCCOc3ccc(CN4CCN(Cc5ccc(N6CCC(=O)NC6=O)cc5)CC4)cc3)nn2)cc1Cl"
measuredresult = "> 10 µM"


We now examine a further molecule.
Fill in the blank: the reported DC50 of "COc1ccc(-c2ocnc2C(=O)NCCCn2cc(CCCCN3CCN(Cc4ccc(N5CCC(=O)NC5=O)cc4)CC3)nn2)cc1Cl" is ____.
> 10 µM

---

compounds and their reported DC50
experimentalSystem: GSK3β (Homo sapiens, UniProt P49841+Q96SW2)
Construct: genetically engineered using CRISPR/Cas9 technology to endogenously tag GSK3p protein with HiBiT tag at the C-terminus; host or cells: HEK293 cells, CRISPR/Cas9 knock-in of HiBiT at the endogenous GSK3B locus
measurementDescription: High throughput screening for GSK3β-HiBiT targeted degradation (Nano-Glo HiBiT Lytic luminescence)
Type: cell-based
settings: HEK293 cells with endogenously HiBiT-tagged GSK3β, 24 h incubation, 0.01-30 μM; products of one-pot plate array (FIG. 1, Method A); read-out: DC50 (half-maximal degradation concentration)

[[record]]
compound = "COc1ccc(-c2ocnc2C(=O)NCCCn2cc(CCCN3CCN(Cc4ccc(C(=O)NC5CCC(=O)NC5=O)nc4)CC3)nn2)cc1Cl (stereo not drawn)"
measuredresult = "> 10 µM"


Query (compound): "COc1ccc(-c2ocnc2C(=O)NCCCn2cc(COc3ccc(CN4CC5(CN(CC(=O)N[C@H](C(=O)N6C[C@H](O)C[C@H]6C(=O)NCc6ccc(-c7scnc7C)cc6)C(C)(C)C)C5)C4)cc3)nn2)cc1Cl" ; field requested: DC50
> 10 µM

Try COc1ccc(-c2ocnc2C(=O)NCCCn2cc(COc3ccc(CN4CC5(C4)CN(Cc4ccc(C(=O)NC6CCC(=O)NC6=O)c(F)c4)C5)cc3)nn2)cc1Cl (stereo not drawn) next.
1.9 µM

What do we get for COc1ccc(-c2ocnc2C(=O)NCCCn2cc(-c3ccc(CN4CCN(Cc5ccc6c(N7CCC(=O)NC7=O)nn(C)c6c5)CC4)cn3)nn2)cc1Cl [AHD2B-1-D2] ?
< 0.25 µM

Try COc1ccc(-c2ocnc2C(=O)NCCCn2cc(CCCCCN3CCCN(Cc4ccc(C(=O)NC5CCC(=O)NC5=O)nc4)CC3)nn2)cc1Cl (stereo not drawn) next.
> 10 µM

Try this compound next: "COc1ccc(-c2ocnc2C(=O)NCCCn2cc(CCCCCN3CCN(Cc4ccc(N5CCC(=O)NC5=O)cc4)CC3)nn2)cc1Cl"
> 10 µM

---

experimentalSystem: GSK3β (Homo sapiens, UniProt P49841+Q96SW2)
Construct: genetically engineered using CRISPR/Cas9 technology to endogenously tag GSK3p protein with HiBiT tag at the C-terminus; host or cells: HEK293 cells, CRISPR/Cas9 knock-in of HiBiT at the endogenous GSK3B locus
measurementDescription: High throughput screening for GSK3β-HiBiT targeted degradation (Nano-Glo HiBiT Lytic luminescence)
Assay type: cell-based
settings: HEK293 cells with endogenously HiBiT-tagged GSK3β, 24 h incubation; products of one-pot plate array (FIG. 1, Method A)
Listed here: items and their measured Dmax (maximal effect).

[[record]]
compound = "COc1ccc(-c2ocnc2C(=O)NCCCn2cc(COCCOCCN3CCN(Cc4ccc(N5CCC(=O)NC5=O)cc4)CC3)nn2)cc1Cl [AHD2B-1-G10]"
measuredresult = "<30%"

[[record]]
compound = "COc1ccc(-c2ocnc2C(=O)NCCCn2cc(CCCCN3CCN(Cc4ccc5c(N6CCC(=O)NC6=O)nn(C)c5c4)CC3)nn2)cc1Cl [AHD2B-1-D1]"
measuredresult = "49%"

[[record]]
compound = "COc1ccc(-c2ocnc2C(=O)NCCCn2cc(-c3cccc(CN4CCN(Cc5cccc(N6CCC(=O)NC6=O)c5)CC4)n3)nn2)cc1Cl [AHD2B-1-A8]"
measuredresult = "<30%"

[[record]]
compound = "COc1ccc(-c2ocnc2C(=O)NCCCn2cc(CCCCCN3CCCN(Cc4ccc(N5CCC(=O)NC5=O)cc4)CC3)nn2)cc1Cl [AHD2B-1-G9]"
measuredresult = "<30%"

[[record]]
compound = "COc1ccc(-c2ocnc2C(=O)NCCCn2cc(CCCOc3ccc(CN4CCN(Cc5ccc(C(=O)NC6CCC(=O)NC6=O)c(F)c5)CC4)cc3)nn2)cc1Cl (stereo not shown) [AHD2B-1-C4]"
measuredresult = "53%"


Name the reported Dmax (maximal effect) value associated with the compound COc1ccc(-c2ocnc2C(=O)NCCCn2cc(CCCN3CCN(Cc4ccc(N5CCC(=O)NC5=O)cc4)CC3)nn2)cc1Cl [AHD2B-1-G12]
<30%

Entry to check: COc1ccc(-c2ocnc2C(=O)NCCCn2cc(CCCOc3ccc(CN4CCN(Cc5ccc(C(=O)NC6CCC(=O)NC6=O)nc5)CC4)cc3)nn2)cc1Cl (stereo not shown) [AHD2B-1-F4]
32%

Now give it for COc1ccc(-c2ocnc2C(=O)NCCCn2cc(CCCN3CCN(Cc4ccc(C(=O)NC5CCC(=O)NC5=O)nc4)CC3)nn2)cc1Cl (stereo not shown) [AHD2B-1-F12] too.
<30%

---

experimentalSystem: GSK3β (Homo sapiens, UniProt P49841+Q96SW2)
Construct: genetically engineered using CRISPR/Cas9 technology to endogenously tag GSK3p protein with HiBiT tag at the C-terminus; host or cells: HEK293 cells, CRISPR/Cas9 knock-in of HiBiT at the endogenous GSK3B locus
measurementDescription: High throughput screening for GSK3β-HiBiT targeted degradation (Nano-Glo HiBiT Lytic luminescence)
Format: cell-based
settings: HEK293 cells with endogenously HiBiT-tagged GSK3β, 24 h incubation, 0.01-30 μM; products of one-pot plate array (FIG. 1, Method A); read-out: DC50 (half-maximal degradation concentration)
Procedure: High throughput Screening for GSK3 β-HiBiTL: Test compounds were transferred into Echo plate (Beckman, 001-12782, Echo LDV384) using BRAVO automated liquid handling platform which serves as source plate (10 mM stocks in DMSO). […] Luminescence signals were measured in an appropriate plate reader (PHERAstar FSX, BMG Labtech) (Dixon et al., 2016, NanoLuc complementation reporter optimized for accurate measurement of protein interactions in cells, ACS Chem. Biol., 11, 400-8). […]
Attribute: DC50

[[record]]
compound = "COc1ccc(-c2ocnc2C(=O)NCCCn2cc(CCCN3CCN(CC(=O)N[C@H](C(=O)N4C[C@H](O)C[C@H]4C(=O)NCc4ccc(-c5scnc5C)cc4)C(C)(C)C)CC3)nn2)cc1Cl"
valuetype = "DC50"
measuredresult = "> 10 µM"

[[record]]
compound = "COc1ccc(-c2ocnc2C(=O)NCCCn2cc(-c3cccc(CN4CCN(Cc5ccc(N6CCC(=O)NC6=O)cc5)CC4)n3)nn2)cc1Cl"
valuetype = "DC50"
measuredresult = "> 10 µM"


Quick one: DC50 for COc1ccc(-c2ocnc2C(=O)NCCCn2cc(CCCOc3ccc(CN4CCN(Cc5ccc(C(=O)NC6CCC(=O)NC6=O)c(F)c5)CC4)cc3)nn2)cc1Cl (stereo not drawn) ?
< 0.25 µM
